testedSystem: AHK2 (Arabidopsis thaliana)
Construct: receptor fused with GFP, transiently expressed in Nicotiana benthamiana leaves; microsomal membranes
Sequence (Q9C5U2 whole entry, the tested form may be a part): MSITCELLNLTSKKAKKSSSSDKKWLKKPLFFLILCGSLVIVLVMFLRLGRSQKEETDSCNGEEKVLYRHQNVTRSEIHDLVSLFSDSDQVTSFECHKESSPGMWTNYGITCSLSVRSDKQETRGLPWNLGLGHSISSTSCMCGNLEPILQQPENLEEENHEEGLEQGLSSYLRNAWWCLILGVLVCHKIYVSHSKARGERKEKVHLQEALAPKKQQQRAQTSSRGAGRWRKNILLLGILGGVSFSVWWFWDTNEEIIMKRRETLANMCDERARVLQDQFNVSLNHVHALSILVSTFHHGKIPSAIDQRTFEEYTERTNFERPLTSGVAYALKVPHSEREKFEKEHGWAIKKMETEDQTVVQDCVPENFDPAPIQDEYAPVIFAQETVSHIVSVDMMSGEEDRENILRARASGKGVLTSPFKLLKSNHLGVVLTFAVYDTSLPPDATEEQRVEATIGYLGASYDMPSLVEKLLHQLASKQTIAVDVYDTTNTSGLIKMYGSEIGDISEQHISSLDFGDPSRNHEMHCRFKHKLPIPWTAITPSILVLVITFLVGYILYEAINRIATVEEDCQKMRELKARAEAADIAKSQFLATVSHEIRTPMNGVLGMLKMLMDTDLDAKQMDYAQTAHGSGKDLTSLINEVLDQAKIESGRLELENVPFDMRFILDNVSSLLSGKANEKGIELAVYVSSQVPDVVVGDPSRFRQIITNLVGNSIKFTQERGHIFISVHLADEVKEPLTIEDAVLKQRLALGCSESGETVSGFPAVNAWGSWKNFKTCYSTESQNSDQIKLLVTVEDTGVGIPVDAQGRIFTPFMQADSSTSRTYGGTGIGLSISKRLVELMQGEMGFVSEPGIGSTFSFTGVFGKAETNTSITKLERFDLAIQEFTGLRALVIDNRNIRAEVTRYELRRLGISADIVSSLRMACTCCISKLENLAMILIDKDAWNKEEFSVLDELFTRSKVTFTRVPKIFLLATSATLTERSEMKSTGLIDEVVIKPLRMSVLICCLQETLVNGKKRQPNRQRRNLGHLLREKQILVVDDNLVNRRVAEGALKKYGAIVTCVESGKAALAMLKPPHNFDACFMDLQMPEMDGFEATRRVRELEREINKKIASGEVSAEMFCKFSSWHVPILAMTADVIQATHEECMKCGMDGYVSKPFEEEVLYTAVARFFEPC
assayOverview: radioligand competition with 3H-isopentenyladenine, plant microsomes
Format: binding
conditionDetails: 1 µM compound vs 3H-iP (2 pmol per sample), membranes of N. benthamiana
Description: radioligand competition with 3H-isopentenyladenine, plant microsomes on AHK2
Threshold rule: АНК2 / 1 μM greater than or equal to 60% is yes; below that, no.

[[record]]
molecule = "C[C@H](Nc1ncnc2[nH]cnc12)c1ccccc1 [5b, N^6-((S)-α-methylbenzyl) adenine]"
testedsystem = "AHK2 (Arabidopsis thaliana)"
assignedcategory = "no"

[[record]]
molecule = "C[C@@H](Nc1nc(F)nc2[nH]cnc12)c1ccccc1"
testedsystem = "AHK2 (Arabidopsis thaliana)"
assignedcategory = "yes"

[[record]]
molecule = "C[C@H](Nc1nc(Cl)nc2[nH]cnc12)c1ccccc1"
testedsystem = "AHK2 (Arabidopsis thaliana)"
assignedcategory = "no"

[[record]]
molecule = "C[C@@H](Nc1nc(Cl)nc2[nH]cnc12)c1ccccc1"
testedsystem = "AHK2 (Arabidopsis thaliana)"
assignedcategory = "no"

[[record]]
molecule = "C[C@@H](Nc1ncnc2[nH]cnc12)c1ccccc1 [5a, N^6-((R)-α-methylbenzyl) adenine]"
testedsystem = "AHK2 (Arabidopsis thaliana)"
assignedcategory = "yes"

[[record]]
molecule = "C[C@H](Nc1nc(F)nc2nc[nH]c12)c1ccccc1"
testedsystem = "AHK2 (Arabidopsis thaliana)"
assignedcategory = "no"


====

testedSystem: CRE1/AHK4 (Arabidopsis thaliana)
Construct: receptor fused with GFP, transiently expressed in Nicotiana benthamiana leaves; microsomal membranes
Sequence (Q9C5U0 whole entry, the tested form may be a part): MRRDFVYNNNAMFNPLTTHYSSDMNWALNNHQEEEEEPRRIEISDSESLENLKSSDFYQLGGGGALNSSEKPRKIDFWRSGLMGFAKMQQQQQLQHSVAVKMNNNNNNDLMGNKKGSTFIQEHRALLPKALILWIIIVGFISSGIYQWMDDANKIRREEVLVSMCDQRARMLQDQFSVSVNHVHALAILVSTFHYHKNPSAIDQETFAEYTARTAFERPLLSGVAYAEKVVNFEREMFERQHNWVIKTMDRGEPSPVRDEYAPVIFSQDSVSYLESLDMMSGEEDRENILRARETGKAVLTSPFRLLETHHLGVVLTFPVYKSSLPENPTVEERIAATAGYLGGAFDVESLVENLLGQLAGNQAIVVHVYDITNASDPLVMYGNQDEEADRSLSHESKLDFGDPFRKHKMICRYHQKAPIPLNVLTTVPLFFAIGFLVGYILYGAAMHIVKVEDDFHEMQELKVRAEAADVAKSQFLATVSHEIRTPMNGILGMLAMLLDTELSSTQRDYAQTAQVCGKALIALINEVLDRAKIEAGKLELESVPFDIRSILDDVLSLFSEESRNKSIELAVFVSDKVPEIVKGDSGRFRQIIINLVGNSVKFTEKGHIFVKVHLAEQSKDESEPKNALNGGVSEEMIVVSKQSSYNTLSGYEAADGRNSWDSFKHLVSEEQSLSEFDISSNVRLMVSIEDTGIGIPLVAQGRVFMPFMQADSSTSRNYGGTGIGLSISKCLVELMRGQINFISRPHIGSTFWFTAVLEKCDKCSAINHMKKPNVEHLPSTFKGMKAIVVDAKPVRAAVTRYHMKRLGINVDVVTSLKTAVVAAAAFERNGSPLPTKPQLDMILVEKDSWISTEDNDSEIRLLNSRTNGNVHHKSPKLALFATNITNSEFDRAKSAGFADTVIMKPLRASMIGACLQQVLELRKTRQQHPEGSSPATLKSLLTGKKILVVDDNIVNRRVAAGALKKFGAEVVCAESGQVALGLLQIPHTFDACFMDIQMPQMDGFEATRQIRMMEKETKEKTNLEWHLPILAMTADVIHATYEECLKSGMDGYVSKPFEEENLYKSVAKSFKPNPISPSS
assayOverview: radioligand competition with 3H-isopentenyladenine, plant microsomes
Assay type: binding
conditionDetails: 1 µM compound vs 3H-iP (2 pmol per sample), membranes of N. benthamiana
Excerpt: radioligand competition with 3H-isopentenyladenine, plant microsomes on CRE1/AHK4
Threshold 50%. CRE1/AHK4 / 1 μM below it: label 1. CRE1/AHK4 / 1 μM at it or above: label 0.

[[record]]
compound = "C[C@H](Nc1nc(Cl)nc2[nH]cnc12)c1ccccc1"
testedsystem = "CRE1/AHK4 (Arabidopsis thaliana)"
assignedcategory = "label 1"

[[record]]
compound = "C[C@@H](Nc1nc(N)nc2[nH]cnc12)c1ccccc1 [8a, 2-amino,N^6-((R)-α-methylbenzyl) adenine]"
testedsystem = "CRE1/AHK4 (Arabidopsis thaliana)"
assignedcategory = "label 1"

[[record]]
compound = "C[C@@H](Nc1nc(F)nc2[nH]cnc12)c1ccccc1"
testedsystem = "CRE1/AHK4 (Arabidopsis thaliana)"
assignedcategory = "label 0"

[[record]]
compound = "C[C@@H](Nc1ncnc2[nH]cnc12)c1ccccc1 [5a, N^6-((R)-α-methylbenzyl) adenine]"
testedsystem = "CRE1/AHK4 (Arabidopsis thaliana)"
assignedcategory = "label 0"

[[record]]
compound = "C[C@H](Nc1nc(F)nc2nc[nH]c12)c1ccccc1"
testedsystem = "CRE1/AHK4 (Arabidopsis thaliana)"
assignedcategory = "label 1"

[[record]]
compound = "C[C@@H](Nc1nc(Cl)nc2[nH]cnc12)c1ccccc1"
testedsystem = "CRE1/AHK4 (Arabidopsis thaliana)"
assignedcategory = "label 0"


====

testedSystem: AHK3 (Arabidopsis thaliana)
Construct: receptor fused with GFP, transiently expressed in Nicotiana benthamiana leaves; microsomal membranes
Sequence (Q9C5U1 whole entry, the tested form may be a part): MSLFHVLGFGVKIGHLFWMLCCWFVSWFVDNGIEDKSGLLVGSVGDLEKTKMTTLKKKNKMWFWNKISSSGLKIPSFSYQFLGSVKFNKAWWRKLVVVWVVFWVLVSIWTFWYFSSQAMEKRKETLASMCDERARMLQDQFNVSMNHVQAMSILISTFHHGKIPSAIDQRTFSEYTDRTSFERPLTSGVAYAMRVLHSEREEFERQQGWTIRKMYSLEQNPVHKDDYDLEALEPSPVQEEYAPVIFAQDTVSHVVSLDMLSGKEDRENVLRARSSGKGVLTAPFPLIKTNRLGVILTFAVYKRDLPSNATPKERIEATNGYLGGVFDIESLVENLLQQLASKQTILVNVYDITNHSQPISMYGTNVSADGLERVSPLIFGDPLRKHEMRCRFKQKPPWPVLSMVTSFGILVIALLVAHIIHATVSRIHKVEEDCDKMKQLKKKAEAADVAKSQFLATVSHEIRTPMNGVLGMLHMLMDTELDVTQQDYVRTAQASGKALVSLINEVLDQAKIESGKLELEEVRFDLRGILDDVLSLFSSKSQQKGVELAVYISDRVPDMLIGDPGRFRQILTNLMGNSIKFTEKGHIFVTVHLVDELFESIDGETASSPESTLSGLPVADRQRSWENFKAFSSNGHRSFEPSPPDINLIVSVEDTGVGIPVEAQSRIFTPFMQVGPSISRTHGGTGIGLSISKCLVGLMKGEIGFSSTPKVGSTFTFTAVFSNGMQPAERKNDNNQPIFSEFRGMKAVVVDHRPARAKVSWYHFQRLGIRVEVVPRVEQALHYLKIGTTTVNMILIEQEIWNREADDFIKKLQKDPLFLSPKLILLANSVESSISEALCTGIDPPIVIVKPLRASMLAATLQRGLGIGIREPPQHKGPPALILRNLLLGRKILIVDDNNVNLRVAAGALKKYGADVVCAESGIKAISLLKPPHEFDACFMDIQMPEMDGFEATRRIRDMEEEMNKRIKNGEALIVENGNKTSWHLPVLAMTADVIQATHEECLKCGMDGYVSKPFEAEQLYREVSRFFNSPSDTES
assayOverview: radioligand competition with 3H-isopentenyladenine, plant microsomes
Format: binding
conditionDetails: 1 µM compound vs 3H-iP (2 pmol per sample), membranes of N. benthamiana
measurementType: АНК3 / 1 μM (%)

[[record]]
compound = "C[C@H](Nc1nc(F)nc2nc[nH]c12)c1ccccc1 [6b]"
u = "%"
experimentalresult = 74.7

[[record]]
compound = "C[C@@H](Nc1nc(F)nc2[nH]cnc12)c1ccccc1 [6a]"
u = "%"
experimentalresult = 99.8

[[record]]
compound = "C[C@H](Nc1nc(Cl)nc2[nH]cnc12)c1ccccc1 [7b]"
u = "%"
experimentalresult = 80.6

[[record]]
compound = "C[C@@H](Nc1ncnc2[nH]cnc12)c1ccccc1 [5a, N^6-((R)-α-methylbenzyl) adenine]"
u = "%"
experimentalresult = 97.7

[[record]]
compound = "C[C@@H](Nc1nc(N)nc2[nH]cnc12)c1ccccc1 [8a, 2-amino,N^6-((R)-α-methylbenzyl) adenine]"
u = "%"
experimentalresult = 54.7

[[record]]
compound = "C[C@@H](Nc1nc(Cl)nc2[nH]cnc12)c1ccccc1 [7a]"
u = "%"
experimentalresult = 88.9

[[record]]
compound = "C[C@H](Nc1ncnc2[nH]cnc12)c1ccccc1 [5b, N^6-((S)-α-methylbenzyl) adenine]"
u = "%"
experimentalresult = 46.5

